Exercise: for every item that follows, state its recorded IC50.
study-system: USP1 (Homo sapiens, UniProt O94782)
Sequence (O94782 whole entry): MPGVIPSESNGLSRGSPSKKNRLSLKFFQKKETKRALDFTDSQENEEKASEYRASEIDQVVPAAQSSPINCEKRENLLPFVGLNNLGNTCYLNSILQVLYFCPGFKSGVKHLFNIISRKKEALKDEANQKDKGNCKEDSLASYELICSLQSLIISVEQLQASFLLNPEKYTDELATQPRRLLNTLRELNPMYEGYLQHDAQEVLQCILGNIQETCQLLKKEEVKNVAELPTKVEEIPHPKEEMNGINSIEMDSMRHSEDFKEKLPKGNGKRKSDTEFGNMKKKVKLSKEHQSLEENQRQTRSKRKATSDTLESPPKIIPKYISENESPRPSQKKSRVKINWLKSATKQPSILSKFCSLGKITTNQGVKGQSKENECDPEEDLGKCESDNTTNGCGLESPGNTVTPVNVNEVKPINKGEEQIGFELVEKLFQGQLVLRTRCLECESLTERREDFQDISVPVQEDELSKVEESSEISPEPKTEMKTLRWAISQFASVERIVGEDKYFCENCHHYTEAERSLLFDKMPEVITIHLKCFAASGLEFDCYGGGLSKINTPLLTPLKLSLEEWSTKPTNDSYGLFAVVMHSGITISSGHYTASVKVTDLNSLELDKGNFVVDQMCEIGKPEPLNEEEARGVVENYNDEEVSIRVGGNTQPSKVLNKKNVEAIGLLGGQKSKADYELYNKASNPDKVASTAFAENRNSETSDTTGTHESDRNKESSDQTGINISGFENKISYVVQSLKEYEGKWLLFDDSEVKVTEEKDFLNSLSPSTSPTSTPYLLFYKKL
Sequence (Q8TAF3 whole entry partner): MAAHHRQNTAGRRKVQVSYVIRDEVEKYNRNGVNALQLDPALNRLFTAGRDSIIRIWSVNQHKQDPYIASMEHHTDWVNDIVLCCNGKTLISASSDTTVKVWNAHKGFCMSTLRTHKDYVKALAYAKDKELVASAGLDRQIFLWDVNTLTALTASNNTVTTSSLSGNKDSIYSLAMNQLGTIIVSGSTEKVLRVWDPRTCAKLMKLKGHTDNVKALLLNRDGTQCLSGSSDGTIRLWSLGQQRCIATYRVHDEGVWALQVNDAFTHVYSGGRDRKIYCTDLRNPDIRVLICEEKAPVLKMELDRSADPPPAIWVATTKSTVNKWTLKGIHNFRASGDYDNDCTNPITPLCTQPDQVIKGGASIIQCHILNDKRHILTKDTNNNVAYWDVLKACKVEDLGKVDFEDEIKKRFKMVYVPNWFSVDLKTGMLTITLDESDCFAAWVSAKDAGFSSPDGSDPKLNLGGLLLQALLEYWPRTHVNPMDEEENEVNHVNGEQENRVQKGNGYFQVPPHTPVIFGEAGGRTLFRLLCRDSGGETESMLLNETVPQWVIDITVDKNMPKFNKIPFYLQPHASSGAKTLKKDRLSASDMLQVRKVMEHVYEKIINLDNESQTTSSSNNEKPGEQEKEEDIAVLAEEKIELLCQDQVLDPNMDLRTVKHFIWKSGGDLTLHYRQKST
experiment: Biochemical Assay for USP1 Inhibition (Ub-Rho 110 fluorescence)
conditions: Table 5; 30 min preincubation, Enzyme 0.025 nM, Substrate Ub-Rho 110 25 nM; read-out: IC50 (μm)

## Input Return IC50 for the following compound: Cc1nc(-c2cccnc2C(C)C)c2n1CCN(c1ccc(N3CCC(O)C3)cc1)C2 (centres unmarked)
## Output 10 to 25 µM

## Input Return IC50 for the following compound: Cc1nc(-c2cccnc2C(C)C)c2n1CCN(c1cnccn1)C2
## Output > 25 µM

## Input Return IC50 for the following compound: Cc1nc(-c2cccnc2C(C)C)c2n1CCN(c1ccc(-c3cnn(CC(C)C)c3)cc1)C2
## Output 1 to 10 µM

## Input Return IC50 for the following compound: Cc1nc(-c2cccnc2C(C)C)c2n1CCN(c1ccc(C(=O)N3CCC[C@H]3C)cc1)C2
## Output 10 to 25 µM

## Input Return IC50 for the following compound: Cc1nc(-c2cccnc2C(C)C)c2n1CCN(c1cc(N3CCCCC3)ncn1)C2
## Output 10 to 25 µM

## Input Return IC50 for the following compound: Cc1cc(Cl)n(-c2ccc(N3CCn4c(C)nc(-c5cccnc5OC(F)F)c4C3)cc2)n1
## Output ≤ 1 µM

## Input Return IC50 for the following compound: CNC(=O)c1ccc(N2CCn3c(C)nc(-c4cccnc4C(C)C)c3C2)c(F)c1
## Output > 25 µM

## Input Return IC50 for the following compound: Cc1nc(-c2cccnc2C(C)C)c2n1CCN(c1ccc(-c3nc(C(F)(F)F)cn3C3CC3)cc1)C2
## Output ≤ 1 µM
